Reported protein stability index values are given for each entry in this list.
Tested on: Saccharomyces cerevisiae;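 note: PSI is a weighted mean of sequencing reads over stability bins, variants kept only with over 10 reads, mCherry proximal and sfGFP distal, peptide attached via GGGS linker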
run description: protein stability index of tFT-peptide fusion (C-terminal peptide) (PSI (0-1 scale)); higher = more stable (slower turnover)
protocol conditions: genetic background: cdc34-1; temperature: 37 C
The answer should be written as a number, with no unit following it.

Here's what some known entries look like.
INSERT INTO results (monomer_sequence, readout_type, recorded_result) VALUES
  ('RPHPLHIPRRLA', 'protein stability index', 0.624),
  ('SWLAQCVVISLL', 'protein stability index', 0.634),
  ('MVVSLVLCFWAS', 'protein stability index', 0.248),
  ('YLAGPLARLRKF', 'protein stability index', 0.68),
  ('LSLWPIFGIIYC', 'protein stability index', 0.46);

Lookup: Return reported protein stability index; argument: GGLWRRLCLGVG
Found: 0.4

Lookup: Continue with RRGLIFFLCCPA
Found: 0.383

Lookup: Again, but for FFRAYLQMYVTD
Found: 0.412

Lookup: Also need PSPVRSSYASTL , thanks.
Found: 0.666

Lookup: Next record, please: LSPPPLSFPFSA
Found: 0.704
